All figures here come from paper PMC3758303.

test.method.notes: WST-1 cell proliferation assay, OR6 cells
Assay type: cell-based
reported.conditions: human
readout.type: CC50 at 72 h (µM)
One number for each entry, in µM.

Look up and state reported CC50 at 72 h for OCCCCCCC1COOC2(CCCCCCCCCCC2)OOC1 [N-251]
3

From here, focus on the item given below.
Look up and state reported CC50 at 72 h for C1CCCCCC2(CCCCC1)OOCCCOO2 [N-89, 1,2,6,7-Tetraoxaspiro[7.11]nonadecane]
9

* * *

Test system: genome-length HCV-RNA (1B-4 strain of genotype 1b) replication in HuH-7-derived 1B-4R cells
test.method.notes: 1B-4R RL assay
Type: cell-based
reported.conditions: Hepatitis C virus, 1B-4R assay, HuH-7, HCV strain 1B-4, 72 hrs
readout.type: EC50 (nM)
Numbers only, in nM.

Look up and state reported EC50 for C1CCCCCC2(CCCCC1)OOCCCOO2 [N-89, 1,2,6,7-Tetraoxaspiro[7.11]nonadecane]
420

From here, focus on the item given below.
Look up and state reported EC50 for OCCCCCCC1COOC2(CCCCCCCCCCC2)OOC1
980

* * *

Tested on: genome-length HCV-RNA (O strain of genotype 1b) replication in HuH-7-derived OR6 cells
test.method.notes: OR6 RL assay
Assay type: cell-based, hepatitis C virus
reported.conditions: Hepatitis C virus; OR6 assay, HuH-7, HCV strain O, 72 hrs, RL assay
readout.type: pEC50
Numbers only, as −log10 of the molar value.

Look up and state reported pEC50 for OCCCCCCC1COOC2(CCCCCCCCCCC2)OOC1
6.16

From here, focus on the item given below.
Look up and state reported pEC50 for C1CCCCCC2(CCCCC1)OOCCCOO2 [N-89, 1,2,6,7-Tetraoxaspiro[7.11]nonadecane]
6.18

* * *

test.method.notes: WST-1 cell proliferation assay, AH1R cells
Type: cell-based
reported.conditions: human
readout.type: CC50 at 72 h (nM)
Answers are plain numbers, in nM.

Look up and state reported CC50 at 72 h for OCCCCCCC1COOC2(CCCCCCCCCCC2)OOC1
490

* * *

Assignment: determine reported CC50 at 72 h for the given compounds.
test.method.notes: WST-1 cell proliferation assay, 1B-4RL cells
Type: cell-based
reported.conditions: human
Procedure: The WST-1 cell proliferation assay was performed as described previously. Briefly, The cells were plated onto 96-well plates (1×10^3 cells per well) in triplicate and then treated with each reagent at several concentrations for 72 hrs. After treatment, the cells were subjected to the WST-1 cell proliferation assay (Takara Bio, Otsu, Japan) according to the manufacturer’s protocol. […]
Answers are plain numbers, in µM.

Look up and state reported CC50 at 72 h for OCCCCCCC1COOC2(CCCCCCCCCCC2)OOC1
1.9

From here, focus on the item given below.
Look up and state reported CC50 at 72 h for C1CCCCCC2(CCCCC1)OOCCCOO2 [N-89, 1,2,6,7-Tetraoxaspiro[7.11]nonadecane]
2.4

* * *

test.method.notes: Viability of RSc-JRN/35B cells (WST-1, trypan blue cell counting)
Assay type: cell-based, human
reported.conditions: human, read-out: viable cells by cell counting after trypan blue dye treatment
Procedure: The WST-1 cell proliferation assay was performed as described previously. Briefly, The cells were plated onto 96-well plates (1×10^3 cells per well) in triplicate and then treated with each reagent at several concentrations for 72 hrs. After treatment, the cells were subjected to the WST-1 cell proliferation assay (Takara Bio, Otsu, Japan) according to the manufacturer’s protocol. […]
readout.type: viability at 10 µM

Look up and state reported viability at 10 µM for OCCCCCCC1COOC2(CCCCCCCCCCC2)OOC1
~30%

* * *

test.method.notes: WST-1 cell proliferation assay, KAH5RL cells
Type: cell-based
reported.conditions: human
readout.type: CC50 at 72 h
Number first, unit second.

Look up and state reported CC50 at 72 h for OCCCCCCC1COOC2(CCCCCCCCCCC2)OOC1
2800 nM

From here, focus on the item given below.
Look up and state reported CC50 at 72 h for C1CCCCCC2(CCCCC1)OOCCCOO2 [N-89, 1,2,6,7-Tetraoxaspiro[7.11]nonadecane]
2500 nM

* * *

test.method.notes: WST-1 cell proliferation assay, sOR cells
Assay type: cell-based
reported.conditions: human
Assignment: determine reported CC50 at 72 h for the given compounds.
Give bare numbers, in nM.

Look up and state reported CC50 at 72 h for OCCCCCCC1COOC2(CCCCCCCCCCC2)OOC1
2200

From here, focus on the item given below.
Look up and state reported CC50 at 72 h for C1CCCCCC2(CCCCC1)OOCCCOO2 [N-89, 1,2,6,7-Tetraoxaspiro[7.11]nonadecane]
1700

* * *

test.method.notes: WST-1 cell proliferation assay, ORL8 cells
Format: cell-based
reported.conditions: human
readout.type: CC50 at 72 h (nM)
One number for each entry, in nM.

Look up and state reported CC50 at 72 h for OCCCCCCC1COOC2(CCCCCCCCCCC2)OOC1
1300

From here, focus on the item given below.
Look up and state reported CC50 at 72 h for C1CCCCCC2(CCCCC1)OOCCCOO2 [N-89, 1,2,6,7-Tetraoxaspiro[7.11]nonadecane]
2300

* * *

Assignment: determine reported CC50 at 72 h for the given compounds.
test.method.notes: WST-1 cell proliferation assay, sORL8 cells
Format: cell-based
reported.conditions: human
Method: The WST-1 cell proliferation assay was performed as described previously. Briefly, The cells were plated onto 96-well plates (1×10^3 cells per well) in triplicate and then treated with each reagent at several concentrations for 72 hrs. After treatment, the cells were subjected to the WST-1 cell proliferation assay (Takara Bio, Otsu, Japan) according to the manufacturer’s protocol. […]

Look up and state reported CC50 at 72 h for OCCCCCCC1COOC2(CCCCCCCCCCC2)OOC1
4100 nM

From here, focus on the item given below.
Look up and state reported CC50 at 72 h for C1CCCCCC2(CCCCC1)OOCCCOO2 [N-89, 1,2,6,7-Tetraoxaspiro[7.11]nonadecane]
1100 nM

* * *

test.method.notes: WST-1 cell proliferation assay, sORL11 cells
Assay type: cell-based
reported.conditions: human
Method: The WST-1 cell proliferation assay was performed as described previously. Briefly, The cells were plated onto 96-well plates (1×10^3 cells per well) in triplicate and then treated with each reagent at several concentrations for 72 hrs. After treatment, the cells were subjected to the WST-1 cell proliferation assay (Takara Bio, Otsu, Japan) according to the manufacturer’s protocol. […]
Assignment: determine reported CC50 at 72 h for the given compounds.
Answers are plain numbers, in µM.

Respectfully, I request CC50 at 72 h for each entry included below.
1. C1CCCCCC2(CCCCC1)OOCCCOO2 [N-89, 1,2,6,7-Tetraoxaspiro[7.11]nonadecane]
2. OCCCCCCC1COOC2(CCCCCCCCCCC2)OOC1 [N-251]

1: 1.7; 2: 3.1

* * *

System: genome-length HCV-RNA (1B-4 strain of genotype 1b) replication in Li23-derived 1B-4RL cells
test.method.notes: 1B-4RL RL assay
Format: cell-based
reported.conditions: Hepatitis C virus, 1B-4RL assay, Li23, HCV strain 1B-4, 72 hrs
Procedure: RSc and D7 cells were derived from the cell lines HuH-7 and Li23, respectively, were cultured as described previously, [29]. […] The SI value of each reagent was determined by dividing the CC50 value by the EC50 value.
readout.type: EC50 (nM)
One number for each entry, in nM.

Look up and state reported EC50 for OCCCCCCC1COOC2(CCCCCCCCCCC2)OOC1
230

From here, focus on the item given below.
Look up and state reported EC50 for C1CCCCCC2(CCCCC1)OOCCCOO2 [N-89, 1,2,6,7-Tetraoxaspiro[7.11]nonadecane]
120
